Biological target: wild-type calmodulin (UniProt P0DP23 1-149)
Test: ITC
readout: Kd (pM)
Just the number in pM, nothing appended.

Look at this binder and give its reported Kd. Ac-KKFNARRKLKGAILTTMLATRN-NH2 [CaMKII(291–312) peptide] 0.07
